- Test system: human breast cancer cell MDA-MB-231
- MEASUREMENT DESCRIPTION: Cell proliferation (MTT) assay, MDA-MB-231
- Assay type: cell-based
- CONDITION DETAILS: antiproliferative, MTT, 48 h exposure; read-out: IC50 MDA-MB-231
RESULT TYPE: IC50 (µM)
Lab book: enter the figure in µM, no units written.

Here's what some known entries look like.
• Cc1ccc(/C=C/C=C/S(=O)(=O)F)cc1 = 35.2
• O=S(=O)(F)/C=C/c1ccc(O)cc1 = 19

Prompt: Name the reported IC50 value associated with the compound `O=S(=O)(F)/C=C/c1ccc(OC(F)(F)F)cc1`
Response: 36.5

----------
- STUDY TARGET: telomerase (Homo sapiens, UniProt O14746)
- Construct: endogenous in cells; host or cells: A375 human melanoma cells
- Sequence (O14746 whole entry): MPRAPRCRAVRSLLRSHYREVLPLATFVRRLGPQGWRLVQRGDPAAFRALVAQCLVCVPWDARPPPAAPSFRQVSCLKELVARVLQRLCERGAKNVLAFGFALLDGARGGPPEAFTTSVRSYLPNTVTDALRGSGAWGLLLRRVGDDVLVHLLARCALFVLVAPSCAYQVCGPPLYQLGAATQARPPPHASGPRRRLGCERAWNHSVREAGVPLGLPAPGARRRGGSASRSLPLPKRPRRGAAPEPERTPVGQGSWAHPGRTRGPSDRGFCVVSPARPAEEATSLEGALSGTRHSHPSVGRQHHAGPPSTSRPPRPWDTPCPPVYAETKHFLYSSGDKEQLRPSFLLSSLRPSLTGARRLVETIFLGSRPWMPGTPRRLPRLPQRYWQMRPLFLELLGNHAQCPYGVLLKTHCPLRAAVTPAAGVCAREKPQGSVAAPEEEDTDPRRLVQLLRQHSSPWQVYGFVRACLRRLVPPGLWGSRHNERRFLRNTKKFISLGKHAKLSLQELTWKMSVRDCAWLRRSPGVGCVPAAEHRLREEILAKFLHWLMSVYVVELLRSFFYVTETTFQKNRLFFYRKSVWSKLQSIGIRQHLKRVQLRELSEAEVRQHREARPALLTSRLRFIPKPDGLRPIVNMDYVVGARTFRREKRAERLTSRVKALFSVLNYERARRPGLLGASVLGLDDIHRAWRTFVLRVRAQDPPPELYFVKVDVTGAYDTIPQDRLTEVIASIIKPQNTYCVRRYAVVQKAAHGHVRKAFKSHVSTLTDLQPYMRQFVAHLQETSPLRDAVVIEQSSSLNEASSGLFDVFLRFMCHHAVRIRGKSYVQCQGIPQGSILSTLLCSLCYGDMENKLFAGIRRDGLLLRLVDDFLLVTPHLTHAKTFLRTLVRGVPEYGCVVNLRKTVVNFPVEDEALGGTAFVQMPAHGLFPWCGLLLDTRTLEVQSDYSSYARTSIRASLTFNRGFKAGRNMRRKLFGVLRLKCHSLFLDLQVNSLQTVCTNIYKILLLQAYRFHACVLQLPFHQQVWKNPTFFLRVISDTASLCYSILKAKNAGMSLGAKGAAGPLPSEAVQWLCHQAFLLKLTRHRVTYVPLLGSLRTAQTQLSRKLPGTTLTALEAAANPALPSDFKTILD
- MEASUREMENT DESCRIPTION: Telomerase activity TRAP-PCR-ELISA assay (A375 cell extract)
- Format: biochemical
- CONDITION DETAILS: IC50 inhibitory activity against telomerase, TRAP-PCR-ELISA, A375 cells, 24 h treatment
RESULT TYPE: IC50 (µM)
Lab book: enter the figure in µM, no units written.

Here's what some known entries look like.
• O=S(=O)(F)/C=C/c1ccc(F)cc1 [Compound 6] = 2.98
• O=S(=O)(F)/C=C/c1cccc(-c2ccccc2)c1 [Compound 75] = 4.4

Prompt: Name the reported IC50 value associated with the molecule Cc1cccc(/C=C/S(=O)(=O)F)c1 [Compound 17]
Response: 10.1

Prompt: Name the reported IC50 value associated with the molecule O=S(=O)(F)/C=C/C=C/c1ccc(/C=C/S(=O)(=O)F)cc1 [Compound 57]
Response: 0.97

Prompt: Name the reported IC50 value associated with the molecule O=S(=O)(F)/C=C/c1cccc(/C=C/S(=O)(=O)F)c1 [Compound 70]
Response: 1.01

----------
- System: human melanoma cell A375
- MEASUREMENT DESCRIPTION: Cell proliferation (MTT) assay, A375
- Type: cell-based
- CONDITION DETAILS: Homo sapiens, A-375, 48 h, read-out: IC50 A375, antiproliferative, MTT, 48 h exposure
pIC50: −log10 of the molar value.
Listing: pIC50 of selected compounds

* O=S(=O)(F)/C=C/c1cccc(/C=C/S(=O)(=O)F)c1 | ~5.52
* O=[N+]([O-])c1ccc(/C=C/S(=O)(=O)F)cc1 | ~5.52
* O=S(=O)(F)/C=C/C=C/c1ccc(/C=C/S(=O)(=O)F)cc1 | ~5.52
* O=S(=O)(F)/C=C/c1ccc2ccccc2c1 | ~5.52

Now take the following compound into account.
Prompt: Name the reported pIC50 value associated with the compound `O=S(=O)(F)/C=C/c1ccc(Cl)cc1`
Response: 5.01
